Origin of measurements: patent US20230287082A1

target: human NKp30 (human) (UniProt O14931); experiment: BLI, ratio to ΔB7-H6_wt
Sequence (O14931 19-135 limits assumed): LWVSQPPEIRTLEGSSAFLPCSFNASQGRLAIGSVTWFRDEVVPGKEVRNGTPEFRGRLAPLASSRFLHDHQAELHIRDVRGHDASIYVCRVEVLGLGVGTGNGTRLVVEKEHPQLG

{"columns": ["binder", "x-fold Koff improvement"],
 "data": [
  ["ΔB7-H6_S3#3-SEED-PGLALA (bispecific antibody, part only; not given: SEED Fc chains and hu225 Fab, part only) chain, part: DLKVEMMAGGTQITPLNDNVTIFCNIFYSQPLNITHMGITWFWKSLTFDKEVKVFEFFGDHQEAFRPGAIVSPWRLKSGDASLRLPGIQLEEAGEYRCEVFVTPYKAQGTVQLEVVASPAS", "1.5 fold"],
  ["ΔB7-H6_S3#17-SEED-PGLALA (bispecific antibody, part only; not given: SEED Fc chains and hu225 EGFR Fab, part only) chain, part: DLKVEMMAGGTQITPLNDNVTIFCNIFYSQPLNITSMGITWFWKSLTFDKEVKVFEFYGDHQEAFRPGAIVSPWRLKSGDASLRLPGIQLEEAGEYRCEVFVTPLKAQGTVQLEVVASPAS", "2.9 fold"],
  ["ΔB7-H6_S2#7-SEED-PGLALA (bispecific antibody, part only; not given: SEED Fc chains and hu225 Fab, part only) chain, part: DLKVEMMAGGTQITPLNDNVTIFCNIFYSQPLNITSMGITWFWKSLTFDKEVKVFEFYGDHQEAFRPGAIVSPWRLKSGDASLRLPGIQLEEAGEYRCEVIVTPYKAQGTVQLEVVTSPAS", "1.7 fold"],
  ["ΔB7-H6_S3#7-SEED-PGLALA (bispecific antibody, part only; not given: SEED Fc chains and hu225 Fab, part only) chain, part: DLKVEMMAGGTQITPLNDNVTIFCNIFYSQPLNITHMGITWFWKSLTFDKEVKVFEFYGDHQEAFRPGAIVSPWRLKSGDASLRLPGIQLEEAGEYRCEVVVTPYKAQGTVQLEVVASPAS", "3.2 fold"],
  ["ΔB7-H6_S3#16-SEED-PGLALA (bispecific antibody, part only; not given: SEED Fc chains and hu225 Fab, part only) chain, part: DLKVEMMAGGTQITPLNDNVTIFCNIFYSQPLNITLMGITWFWKSLTFDKEVKVFEFYGDHQEAFRPGAIVSPWRLKSGDASLRLPGIQLEEAGEYRCEVVVTPYKAQGTVQLEVVASPAS", "5.8 fold"],
  ["ΔB7-H6_S2#10-SEED-PGLALA (bispecific antibody, part only; not given: SEED Fc chains and hu225 EGFR Fab, part only) chain, part: DLKVEMMAGGTQITPLNDNVTIFCNIFYSQPLNITLMGITWFWKSLTFDKEVKVFEFWGDHQEAFRPGAIVSPWGLKSGDASLRLPGIQLEEAGEYRCEVVVTPLKAQGTVQLEVVASPAS", "1.5 fold"],
  ["ΔB7-H6_S3#21-SEED-PGLALA (bispecific antibody, part only; not given: SEED Fc chains and hu225 Fab, part only) chain, part: DLKVEMMAGGTQITPLNDNVTIFCNIFYSQPLNITLMGITWFWKSLTFDKEVKVFEFWGDHQEAFRPGAIVSPWRLKSGDASLRLPGIQLEEAGEYRCEVVVTPYKAQGTVQLEVVASPAS", "8 fold"],
  ["ΔB7-H6_S3#15-SEED-PGLALA (bispecific antibody, part only; not given: SEED Fc chains and hu225 Fab, part only) chain, part: DLKVEMMAGGTQITPLNDNVTIFCNIFYSQPLNITIMGITWFWKSLTFDKEVKVFEFWGDHQEAFRPGAIVSPWRLKSGDASLRLPGIQLEEAGEYRCEVVVTPYKAQGTVQLEVVASPAS", "16.6 fold"]
]}
